biological target: Fyn (UniProt P06241); assay: phosphorylation enrichment, bacterial display (enrichment ratio); higher = better substrate or ligand; peptides without Tyr show the background
Sequence (P06241 whole entry, looked up): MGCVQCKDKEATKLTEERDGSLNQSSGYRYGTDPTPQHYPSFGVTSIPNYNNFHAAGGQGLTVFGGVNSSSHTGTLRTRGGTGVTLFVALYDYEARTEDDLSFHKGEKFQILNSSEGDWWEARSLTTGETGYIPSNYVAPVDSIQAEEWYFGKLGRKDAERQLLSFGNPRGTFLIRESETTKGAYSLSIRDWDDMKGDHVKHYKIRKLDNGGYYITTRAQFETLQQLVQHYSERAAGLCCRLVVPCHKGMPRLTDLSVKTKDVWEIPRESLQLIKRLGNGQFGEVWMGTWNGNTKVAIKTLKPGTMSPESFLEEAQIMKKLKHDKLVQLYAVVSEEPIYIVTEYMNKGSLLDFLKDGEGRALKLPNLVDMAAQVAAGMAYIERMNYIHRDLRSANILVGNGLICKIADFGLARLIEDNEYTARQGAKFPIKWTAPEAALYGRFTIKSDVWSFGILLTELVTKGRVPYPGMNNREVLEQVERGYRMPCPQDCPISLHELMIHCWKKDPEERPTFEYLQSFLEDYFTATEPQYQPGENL
Everything with phosphorylation enrichment lower than 1 is Not met; everything else, including exactly 1, is Met.

# RECORD_SEQUENCE, CLASS_ASSIGNMENT
measured = [
    ("YKEDPYLVVNP [MCM6_Y810_E806K]", "Met"),
    ("MFFSTYDRDND [FGB_Y408]", "Not met"),
    ("IYHLSYLHNCE [PDE6B_Y227]", "Met"),
    ("KSFDMYSGDVM [FAM3D_Y122_A118S]", "Met"),
    ("HFVDEYDRTIE [KRAS_Y32_P34R]", "Not met"),
    ("WFQTKYEELQI [KRT6B_Y360_YF]", "Not met"),
]

====

biological target: Hck (UniProt P08631); experiment: phosphorylation enrichment, bacterial display (enrichment ratio); higher = better substrate or ligand; peptides without Tyr show the background
Sequence (P08631 whole entry, looked up): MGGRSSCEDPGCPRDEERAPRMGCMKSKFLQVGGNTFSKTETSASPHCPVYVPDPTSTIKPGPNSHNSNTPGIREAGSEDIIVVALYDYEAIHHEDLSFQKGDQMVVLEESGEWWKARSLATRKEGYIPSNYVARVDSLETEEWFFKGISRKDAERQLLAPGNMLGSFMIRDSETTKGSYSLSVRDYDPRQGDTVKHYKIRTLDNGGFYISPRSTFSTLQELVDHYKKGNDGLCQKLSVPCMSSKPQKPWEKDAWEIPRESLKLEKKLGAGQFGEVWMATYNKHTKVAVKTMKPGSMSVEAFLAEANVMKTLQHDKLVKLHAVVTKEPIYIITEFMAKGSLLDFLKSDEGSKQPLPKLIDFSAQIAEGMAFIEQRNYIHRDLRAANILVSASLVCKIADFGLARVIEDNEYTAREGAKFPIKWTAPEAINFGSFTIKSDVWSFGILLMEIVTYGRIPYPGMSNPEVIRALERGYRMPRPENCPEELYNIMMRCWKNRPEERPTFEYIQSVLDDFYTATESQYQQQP

# RECORD_SEQUENCE, phosphorylation enrichment
records = [
    ("FGGLRYGFGGL [KRTAP20-2_Y13_V17G_YF]", 0.465),
    ("LDFNEYFRGLN [HPRT1_Y198_D201G_YF]", 0.873),
    ("STFVPCEIKVQ [L1CAM_Y784_Y784C]", 0.589),
    ("ARAHKYHGGGG [HBB_Y146_L142R]", 0.302),
    ("LIFVSYDDWDF [GRIN2A_Y281_S278F_YF]", 1.1),
    ("SLDLSYFTTSS [EMD_Y181_P183T_YF]", 0.451),
    ("LLLLFYVVRFC [MPZ_Y177_YF]", 0.472),
    ("QYQEKYKQVEQ [HCN4_Y531]", 0.579),
    ("AERKLYSGAQT [ZAP70_Y178]", 0.395),
    ("ASGKFYAMKIL [AKT3_Y174_YF]", 0.53),
    ("ILQSMYGCDVG [HLA-B_Y123_T118I]", 0.517),
    ("ASFPLYEPAKM [MKI67_Y340]", 8.34),
    ("TTKGSYSLSVR [HCK_Y180]", 0.433),
]

====

molecular target: Grb2 SH2 (UniProt P62993); experiment: SH2 binding enrichment of the phosphorylated peptide, bacterial display (enrichment ratio); higher = better substrate or ligand; peptides without Tyr show the background
Sequence (P62993 whole entry, looked up): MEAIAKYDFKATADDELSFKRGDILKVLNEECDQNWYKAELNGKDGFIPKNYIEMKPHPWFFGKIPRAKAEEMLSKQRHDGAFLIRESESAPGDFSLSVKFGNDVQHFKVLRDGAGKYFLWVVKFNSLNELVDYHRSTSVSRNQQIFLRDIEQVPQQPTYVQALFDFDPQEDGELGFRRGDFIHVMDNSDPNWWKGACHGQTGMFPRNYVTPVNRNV

# RECORD_SEQUENCE, SH2 binding enrichment
records = [
    ("NGVSFYINLCQ [IGF2R_Y2025_YF]", 0.791),
    ("MKSIKYMDKEI [CCDC60_Y41]", 0.797),
    ("AEFGLYGAMVW [VSX2_Y222_R227W_YF]", 0.805),
]

====

biological target: MERTK (UniProt Q12866); experiment: phosphorylation enrichment, bacterial display (enrichment ratio); higher = better substrate or ligand; peptides without Tyr show the background
Sequence (Q12866 whole entry, looked up): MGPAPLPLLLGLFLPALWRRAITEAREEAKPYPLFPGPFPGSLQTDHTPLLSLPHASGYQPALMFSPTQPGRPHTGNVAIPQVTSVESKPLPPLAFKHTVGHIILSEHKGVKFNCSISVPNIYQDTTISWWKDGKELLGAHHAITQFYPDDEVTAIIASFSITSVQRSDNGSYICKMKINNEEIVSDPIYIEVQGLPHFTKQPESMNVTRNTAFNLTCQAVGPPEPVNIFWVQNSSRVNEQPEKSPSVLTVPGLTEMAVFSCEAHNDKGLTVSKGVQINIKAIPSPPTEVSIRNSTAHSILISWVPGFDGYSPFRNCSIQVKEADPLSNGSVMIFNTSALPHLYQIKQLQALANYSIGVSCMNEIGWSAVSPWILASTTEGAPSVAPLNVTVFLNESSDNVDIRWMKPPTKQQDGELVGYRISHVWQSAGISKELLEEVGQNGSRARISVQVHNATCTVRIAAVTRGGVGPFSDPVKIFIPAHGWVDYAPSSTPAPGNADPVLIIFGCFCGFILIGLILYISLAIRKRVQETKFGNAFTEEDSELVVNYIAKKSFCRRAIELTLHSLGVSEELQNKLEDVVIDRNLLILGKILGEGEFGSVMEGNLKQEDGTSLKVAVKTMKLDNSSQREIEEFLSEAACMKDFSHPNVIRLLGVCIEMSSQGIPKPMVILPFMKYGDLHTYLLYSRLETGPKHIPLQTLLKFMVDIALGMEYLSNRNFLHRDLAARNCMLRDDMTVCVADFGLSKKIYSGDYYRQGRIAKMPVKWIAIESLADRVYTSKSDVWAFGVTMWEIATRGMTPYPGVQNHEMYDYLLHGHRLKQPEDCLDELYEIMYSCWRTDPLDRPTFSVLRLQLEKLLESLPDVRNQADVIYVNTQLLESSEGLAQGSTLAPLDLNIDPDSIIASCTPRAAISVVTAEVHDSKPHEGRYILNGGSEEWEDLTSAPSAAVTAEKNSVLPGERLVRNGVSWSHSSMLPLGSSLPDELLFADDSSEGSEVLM
READOUT_NAME: phosphorylation enrichment

# RECORD_SEQUENCE, RECORDED_MEASUREMENT
measured = [
    ("QEGPEYWDQQT [HLA-A_Y83_E87Q]", 0.649),
    ("IEELTYIIKQD [STX5_Y137]", 0.469),
    ("NQILPYIEELV [PPP2R1B_Y341_K343E]", 0.504),
    ("RWQQLYDTLNA [EIF3M_Y351_Q346R]", 6.56),
    ("FSLIHYAGIVD [MYH7_Y582]", 0.339),
    ("CTTIHYMFMCN [TP53_Y234_N235M_YF]", 0.367),
    ("RSSKMYPKTRS [LPL_Y329_L330P]", 0.562),
    ("ISNATYKQIGL [FLT1_Y199_E201Q]", 0.419),
    ("PFWKLYESVKK [MKI67_Y241]", 0.966),
    ("SVSNNYIQTLG [CTNND1_Y174]", 0.621),
    ("QTPVLYAMLYH [MPZ_Y220_D224Y]", 8.33),
    ("RHTRSYDFTEG [FGF7_Y56_M59T_YF]", 0.35),
    ("GRSTFYWPSPR [GAGE12J_Y10_R13S_YF]", 6.43),
    ("MYQVQYNSSVD [LRFN1_Y458]", 0.699),
    ("RGDCMYASLLG [AR_Y269_P271S]", 4.87),
    ("GESQGYDIMEA [MSH2_Y863_P868A]", 0.42),
    ("HVIKLYGACSQ [RET_Y791]", 0.423),
    ("TVHPGYGFLSE [PCCA_Y143_A138T]", 0.396),
]

Numbers sourced from the supplement of paper PMC10065799.
